Protocol Summary: blockers of RIG-like receptor reporter activation – cell-based, Sendai virus stimulus, luciferase, 10K MLSCN set, TLR/RLR signaling modifier project, primary screen (AID 602276);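 further: firefly luciferase from ISG56 promoter only with Renilla not read in this screen; 0% = Sendai virus plus DMSO and 100% = medium plus DMSO without virus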
Conditions: HEK293 RL24 IRF3 luciferase reporter, at 10 µM, stronger effect = higher value
Measurement Name: inhibition (%)

Cc1sc2ncnc(OCC(=O)N3CCN(S(=O)(=O)c4ccccc4)CC3)c2c1C = 16.8
O=C1CCC(c2ccccc2)N1C(=O)c1cccnc1 (stereo not drawn) = -4.49
Cc1cc(NC(=O)C23CCC(C)(c4nc5cc(Cl)c(Cl)cc5nc42)C3(C)C)no1 (stereo not drawn) = 12.2

====

Assayed Target: Voltage-gated potassium channel subunit beta-2 (Rattus norvegicus)
Protocol Summary: inhibitors of rat Kvbeta2 reductase activity – biochemical, NADPH fluorescence, primary screen (AID 622);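 further: slope of raw intensity against log time taken from 70 to 1610 s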
Conditions: recombinant KvBeta, 4-cyanobenzaldehyde reduction, at 10 µM, stronger effect = higher value
Answer label 0 if fluorescence slope is under -0.5, and label 1 if it is -0.5 or more.

Clc1ccc(Cn2ncc3c(NCc4cccnc4)ncnc32)cc1 = label 0
O=C(N1CCN(c2ccccc2F)CC1)C12CC3CC(CC(C3)C1)C2 = label 1
COc1cc(C(=O)NCC(=O)OCC(=O)c2ccc[nH]2)cc(OC)c1OC = label 1
COc1ccccc1N1CCN(c2nc3ccccc3nc2C(C#N)C(=O)OC(C)C)CC1 (stereo unspecified) = label 0
CC1Cc2nc(SCC(N)=O)n(Cc3ccccc3)c(=O)c2S1 (stereo unspecified) = label 1
CCN(CC(=O)Nc1ccc2c(c1)OCCO2)Cc1cc(=O)oc2cc(C)c(C)cc12 = label 1
CCn1c(SCC(=O)Nc2cc(C)on2)nc2sc3c(c2c1=O)CCCC3 = label 1
CCC(Sc1ccc2nnc(-c3ccc(F)cc3)n2n1)C(=O)OC (stereo unspecified) = label 1
CCC(=O)Nc1cccc(Br)c1 = label 0
Cc1cc2ccccc2n1CCNC(=O)C1CC1 = label 1
CC(C)C(CO)NC(=O)CC(=O)NC(CO)C(C)C (stereo unspecified) = label 1
C=CCSc1nnc(Cc2c(C)[nH]c3ccccc23)o1 = label 1
COc1cccc(OC)c1C(=O)n1nc(C)cc1C = label 0
O=C(CN(Cc1ccc(F)cc1)C(=O)Cn1nnc2ccccc21)NCC1CCCO1 (stereo unspecified) = label 1
CCn1c(CCC(=O)Nc2nc3c(s2)CCCC3)nc2cc(S(=O)(=O)N(C)C)ccc21 = label 1
N#CC1=C(N)OC2=C(CCC/C2=C/c2ccoc2)C1c1ccoc1 (stereo unspecified) = label 1
COc1ccc(-n2c(Cc3cccn3C)nnc2SCC(=O)Nc2cccc(Cl)c2)cc1 = label 0
Cc1ccc(NC(=O)CNc2cccc(C)c2C)c(C)c1 = label 0
CCN1C(=C2C(=O)c3ccccc3C2=O)C=Cc2ccccc21 = label 1
COC(=O)C1=CN(C(C)C)C=C(C(=O)OC)C1c1cc2c(cc1Br)OCO2 = label 1
CCOC(=O)C1CCN(CC(=O)c2c(C)[nH]c3ccccc23)CC1 = label 1
COC(=O)C1=C(C)NC(=O)C1(NC(=O)CN1CCCC1=O)C(F)(F)F (stereo unspecified) = label 1
CC1CCC(NC(=O)C2CCN(c3cnccn3)CC2)CC1 (stereo unspecified) = label 0
Cc1ccc2nc(NC(=O)Cn3cc4c(n3)CCCCC4)sc2c1 = label 0
CC(=O)Nc1ccc(N2CCN(Cc3ccccc3F)CC2)cc1 = label 0
CC(C)(C)c1ccc2c(c1)OCC(C(=O)O)O2 (stereo unspecified) = label 0
CCN(Cc1nc2ccccc2c(=O)[nH]1)Cc1nc2cc(OC)c(OC)cc2c(=O)[nH]1 = label 1
CCn1ncc(C2=NOC(C(=O)NCc3ccccc3)C2)c1C (stereo unspecified) = label 1
CC(=O)c1cc2c(cc1NC(=O)CN1CCN(C(=O)c3ccco3)CC1)OCO2 = label 0
Nc1cc(C(=O)O)ccc1Nc1ccc(F)c(F)c1 = label 1
Cn1c(SCc2cccc3ccccc23)nnc1-c1ccco1 = label 0
CCC(CCC(=O)Nc1cccc(C(=O)O)c1)C(=O)O (stereo unspecified) = label 1
Nc1ccc(-n2c(N)c(C(=O)NCc3ccc4c(c3)OCO4)c3nc4ccccc4nc32)cc1 = label 1
c1ccc(OCCCn2nnc(-c3ccncc3)n2)cc1 = label 1
Cc1ccc(-c2[nH]nc3c2C(c2ccc(OC(=O)N4CCOCC4)cc2)C(C#N)=C(N)O3)cc1 (stereo unspecified) = label 0

====

Protocol Summary: endothelial E-selectin expression blockers – imaging, HUVEC, immunofluorescence, MLSMR starter and 10KST1 sets, primary screen (AID 487);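 further: 100% = median nuclei count of all wells on the same plate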
Conditions: HUVEC TNFalpha-induced E-selectin immunofluorescence imaging, at 2 µM; measured here: cell number, toxicity
The molecules listed here are annotated with their nuclei count.
Measurement Name: nuclei count (%)

CN1CCN(c2ccc(Cl)cc2NC(=O)c2cccc(S(=O)(=O)N(C)C)c2)CC1 = 88.8
CCCOc1ccc([C@@H]2C3CN(C(=O)OCC)CC=C3C(C#N)=C(N)C2(C#N)C#N)cc1OC (some centres undefined) = 112
C(=N\n1cnnc1)/c1cccc(OCCOc2ccccc2)c1 = 108
COc1ccc(NS(=O)(=O)c2c(C)[nH]c(=O)[nH]c2=O)c(OC)c1 = 113
CCn1nnc(NC(=O)c2cc3ccccc3o2)n1 = 102
C=CCn1c(=O)[nH]c2cc(C(=O)N3CCN(c4ccc(C(C)=O)cc4)CC3)ccc2c1=O = 106
Cc1cc(NS(=O)(=O)c2ccc(NC(=O)COc3ccc(Cl)cc3)cc2)no1 = 122
CCOCCCN(Cc1cc2cc(C)cc(C)c2[nH]c1=O)C(=O)N(CC)CC = 106
O=C(Cn1nnc(-c2cccs2)n1)OC1CCCCC1 = 108
CC(=O)Nc1sc2c(c1C#N)CCCCC2 = 115
COCCCNCC(=O)Nc1ccc(OC(F)(F)F)cc1 = 119
C#CCOC(=O)C1C2C=CC(C2)C1C(=O)O (centres undefined) = 115
Cc1ccc2c(c1)sc1ncc(NC(=O)c3ccccc3)c(=O)n12 = 110
CCOC(=O)c1c(COC(=O)c2ccco2)nc2ccccc2[n+]1[O-] = 120
COc1ccc(CN2CC(C(=O)NCCCOC(C)C)CC2=O)cc1 (centres undefined) = 122
O=C(c1cc(-c2ccco2)nn1-c1cccc(Cl)c1)N1CCCCC1 = 100
Cc1sc2c(c1C)CN(C1CC(C)(C)NC(C)(C)C1)CN2C(=O)c1ccco1 = 105
Cc1ccc(OCC(O)Cn2c(NCCc3ccccc3)nc3c2c(=O)[nH]c(=O)n3C)cc1 (centres undefined) = 113
CC1Cc2nc(SCC(=O)N3CCCc4ccccc43)n(C)c(=O)c2S1 (centres undefined) = 118
COc1ccccc1-c1cc2nc(C)c(CCC(=O)NCc3ccco3)c(C)n2n1 = 111
Cc1ccc(-c2nnc(SCC(=O)N3CC(C)CC(C)C3)o2)cc1C (centres undefined) = 120
COC(=O)c1nc(N)sc1-c1ccccc1 = 101
CN(C=O)CP(=O)(O)CCN1CCCC1=O = 106
COc1ccc(-n2c(Cc3cccn3C)nnc2SCC(=O)Nc2cccc(Cl)c2)cc1 = 116
COc1ccc(OC)c(C2CC(=O)NC(SC)=C2C#N)c1 (centres undefined) = 117
CCN(CC)S(=O)(=O)c1ccc(NC(=O)c2cccc3c2C(=O)N(CCOC)C3)cc1 = 129
CC1Cc2ccccc2N1C(=O)CSc1nc2ccccc2n1CC(=O)N1CCOCC1 (centres undefined) = 110
CN1CCN(S(=O)(=O)c2ccc(Sc3nnc(-c4cccs4)n3-c3ccccc3)nc2)CC1 = 142
Cc1cc(C)c(C#N)c(SCC(=O)Nc2ccc(S(=O)(=O)Nc3onc(C)c3C)cc2)n1 = 122

====

Protocol Summary: endothelial E-selectin expression blockers – imaging, HUVEC, immunofluorescence, MLSMR starter and 10KST1 sets, primary screen (AID 487);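 further: 100% = median nuclei count of all wells on the same plate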
Conditions: HUVEC TNFalpha-induced E-selectin immunofluorescence imaging, at 2 µM; measured here: cell number, toxicity
Measurement Name: nuclei count (%)

CC(=O)OCC(=O)c1ccc2ccn(C(C)=O)c2c1 = 95.5
Cc1n[nH]c(C)c1S(=O)(=O)N1CCCCCC1 = 110
Cc1nc(NC2=NCN(CCN3CCOCC3)CN2)nc2c(C)cccc12 = 108
Cc1nc2ccc(C(=O)O)cc2c2c1CC(C)S2 (configuration not stated) = 104
CCCCc1nc2ccccc2n2cc3c(=O)n(C)c(=O)n(C)c3c12 = 104
Cc1cc(C(=O)Nc2ccc(S(=O)(=O)Nc3onc(C)c3C)cc2)cs1 = 105
Cc1cccc(NC(=O)c2oc3c(c2C)C(=O)CC(C)(C)C3)n1 = 93.5
O=S(CC(O)COCc1ccc(Cl)cc1)c1ccccn1 (configuration not stated) = 127
C=CCn1c(SCC(=O)NCC2CCCO2)nnc1C1CCCCC1 (configuration not stated) = 113
Cc1nc2ccccn2c1C(=O)NCCCN1CCOCC1 = 102
CCC(=O)Nc1nn(C)c2nc3c(C)cccc3cc12 = 102
Cc1ccc(S(=O)(=O)N2CCN(C(=O)N3CCOCC3)C2C)cc1 (configuration not stated) = 108
O=C(NCCSCc1ccco1)Nc1cccc(Cl)c1 = 115
CCCC(OC(=O)CN1C(=O)COc2ccccc21)C(=O)NC1CCCC1 (configuration not stated) = 106
O=c1oc2c3c4c(cc2cc1-c1nc2ccccc2[nH]1)CCCN4CCC3 = 121
COc1ccc(S(=O)(=O)N(CCN2CCOCC2)Cc2cc(OC)ccc2OC)cc1 = 113
CCOc1ccccc1OCCn1nnc2ccccc21 = 109
COc1cccc(-c2nc(-c3ccc(NC(=O)Cc4ccccc4OC)cc3)no2)c1 = 116
O=S(=O)(NCc1ccco1)c1cccc2cccnc12 = 103
CCN1CCN(CCCNC(=O)c2cc3sccc3n2CC)CC1 = 108
O=C(/C=C/N1CCOCC1)c1ccc(-c2ccccc2)cc1 = 101
CCC(C)(C)NC(=O)CN(C(=O)c1snc(C(N)=O)c1N)c1ccc2c(c1)OCO2 = 120
CC(Oc1ccc(Br)cc1)C(=O)N1CCc2ccccc21 (configuration not stated) = 119
Cc1cccc(NC(=O)CCCCCN2C(=O)c3ccccc3C2=O)n1 = 167
O=c1cc(C(F)F)oc2c1ccc1ccccc12 = 99.4
Cn1nc(C(C)(C)C)cc1C(=O)NCc1ccc(N2CCCC2=O)cc1 = 107
COc1ccccc1N1CCN(c2nc3ccccc3nc2C(C#N)C(=O)OC(C)C)CC1 (configuration not stated) = 191
O=C(NC1CCS(=O)(=O)C1)OC1CCCCC1 (configuration not stated) = 105
CCOC(=O)C1CCN(C(=O)C2CCN(S(=O)(=O)c3cc(Cl)ccc3Cl)CC2)CC1 = 96.7
COC(=O)[C@H](CCSC)NC(=O)Nc1cc(C)ccc1C = 86.5
CS(=O)(=O)Nc1ccc(C(=O)NCCc2ccccc2)cc1 = 125
Cc1ccc(-n2nc(C(=O)N3CCN(C)CC3)c3c4ccccc4n(C)c3c2=O)cc1 = 119
O=C(Nc1cccnc1N1CCOCC1)c1ccco1 = 109
O=c1cc(-c2ccccc2)[nH]c2nc3ccccc3n12 = 96.2
O=C(Cn1c(=O)oc2ccccc21)N1CCN(c2ccccc2)CC1 = 114
COc1ccc(CCn2c(-c3ccco3)nc3ccccc3c2=O)cc1OC = 120
CN(C)CCNc1oc(-c2ccccc2F)nc1C#N = 116

The reported measurements were obtained from PubChem BioAssay.
